- System: HepG2 cells
- test details: HepG2 cellular toxicity (CellTiter-Glo, 72 h)
- Type: cell-based, human
- condition details: supplement CSV
parameter: HepG2 LD50( 72-h) (µM)
Return type: number; implicit unit µM.

Use the examples below as a reference point.
molecule	parameter	recorded measurement
CC(C)C[C@H](NC(=O)[C@H](Cc1ccccc1)NC(=O)Cc1ccc(O)cc1)B(O)O	HepG2 LD50( 72-h)	0.04
CC(=O)N1CCC[C@@H]1C(=O)N[C@@H](C)C(=O)N[C@@H](Cc1ccccc1)B(O)O	HepG2 LD50( 72-h)	6.7

### Prompt Please report the recorded HepG2 LD50( 72-h) for CC(=O)N1CCC[C@H]1C(=O)N[C@@H](C)C(=O)N[C@@H](CC(C)C)B(O)O .
### Response 2.4

### Prompt Please report the recorded HepG2 LD50( 72-h) for CC(C)C[C@H](NC(=O)[C@H](Cc1ccccc1)NC(=O)c1cnccn1)B(O)O [bortezomib, reference compound] .
### Response 0.03

### Prompt Please report the recorded HepG2 LD50( 72-h) for Cc1ccc(S(=O)(=O)N[C@@H](CC(=O)NCC(C)(C)C)C(=O)N[C@@H](Cc2ccccc2)C(=O)N[C@@H](CC(C)C)B(O)O)cc1 .
### Response 0.26

---

Reported Cam3.IIRev LD50 (3-h) values are given for each entry in this list.
- Test system: P. falciparum Cam3.II^Rev
- test details: 3 h pulsed exposure viability assay, K13 wild-type revertant early rings
- Format: cell-based, Plasmodium falciparum
- condition details: supplement CSV
Put your answer as a value accompanied by its unit after it.

Use the examples below as a reference point.
compound	target or test system	recorded measurement
CC(=O)N1CCC[C@H]1C(=O)N[C@@H](C)C(=O)N[C@@H](CC(C)C)B(O)O [MPI-2]	P. falciparum Cam3.II^Rev	1.8 ± 0.2 µM
CC(C)C[C@H](NC(=O)[C@H](Cc1ccccc1)NC(=O)Cc1ccc(O)cc1)B(O)O [MPI-4]	P. falciparum Cam3.II^Rev	0.18 ± 0.02 µM
Cc1ccc(S(=O)(=O)N[C@@H](CC(=O)NCC(C)(C)C)C(=O)N[C@@H](Cc2ccccc2)C(=O)N[C@@H](CC(C)C)B(O)O)cc1 [MPI-3]	P. falciparum Cam3.II^Rev	0.21 ± 0.03 µM
CC(C)C[C@H](NC(=O)[C@H](Cc1ccccc1)NC(=O)c1cnccn1)B(O)O [bortezomib, reference compound]	P. falciparum Cam3.II^Rev	0.18 ± 0.06 µM

Would you kindly look at the next entry?
### Prompt Item: CC(=O)N1CCC[C@@H]1C(=O)N[C@@H](C)C(=O)N[C@@H](Cc1ccccc1)B(O)O [MPI-1] Test system: P. falciparum Cam3.II^Rev Read-out: Cam3.IIRev LD50 (3-h) Value: ?
### Response 0.9 ± 0.1 µM

---

- Test system: P. falciparum 3D7 parasites
- test details: Standard 72 h antiplasmodial viability assay, 3D7
- Format: cell-based, Plasmodium falciparum
- condition details: sorbitol-treated ring stage, viability in next cycle (~72 h); mean ± SEM, n=3
parameter: Pf3D7 LD50 (72 h) (µM)
Return type: number; implicit unit µM.

Use the examples below as a reference point.
molecule	target or test system	display unit	recorded measurement
CC(C)C[C@H](NC(=O)[C@H](Cc1ccccc1)NC(=O)Cc1ccc(O)cc1)B(O)O [MPI-4]	P. falciparum 3D7 parasites	µM	0.061
Cc1ccc(S(=O)(=O)N[C@@H](CC(=O)NCC(C)(C)C)C(=O)N[C@@H](Cc2ccccc2)C(=O)N[C@@H](CC(C)C)B(O)O)cc1 [MPI-3]	P. falciparum 3D7 parasites	µM	0.065
CC(=O)N1CCC[C@H]1C(=O)N[C@@H](C)C(=O)N[C@@H](CC(C)C)B(O)O [MPI-2]	P. falciparum 3D7 parasites	µM	0.16

### Prompt Please report the recorded Pf3D7 LD50 (72 h) for CC(=O)N1CCC[C@@H]1C(=O)N[C@@H](C)C(=O)N[C@@H](Cc1ccccc1)B(O)O [MPI-1] .
### Response 0.12

### Prompt Please report the recorded Pf3D7 LD50 (72 h) for CC(C)C[C@H](NC(=O)[C@H](Cc1ccccc1)NC(=O)c1cnccn1)B(O)O [bortezomib, reference compound] .
### Response 0.06

---

- Tested on: P. falciparum Cam3.II^Rev
- test details: 3 h pulsed exposure viability assay, K13 wild-type revertant early rings
- Format: cell-based, Plasmodium falciparum
- condition details: early ring (1–3 h p.i.), 3 h pulse, viability in next cycle; mean ± SEM, n=3
Reported Cam3.II^Rev LD50 (3 h) values are given for each entry in this list.
Return type: number; implicit unit µM.

molecule	display unit	Cam3.II^Rev LD50 (3 h)
CC(=O)N1CCC[C@@H]1C(=O)N[C@@H](C)C(=O)N[C@@H](Cc1ccccc1)B(O)O	µM	0.9
CC(C)C[C@H](NC(=O)[C@H](Cc1ccccc1)NC(=O)c1cnccn1)B(O)O [bortezomib, reference compound]	µM	0.18
CC(C)C[C@H](NC(=O)[C@H](Cc1ccccc1)NC(=O)Cc1ccc(O)cc1)B(O)O	µM	0.18
CC(=O)N1CCC[C@H]1C(=O)N[C@@H](C)C(=O)N[C@@H](CC(C)C)B(O)O	µM	1.8

Would you kindly look at the next entry?
### Prompt Please report the recorded Cam3.II^Rev LD50 (3 h) for Cc1ccc(S(=O)(=O)N[C@@H](CC(=O)NCC(C)(C)C)C(=O)N[C@@H](Cc2ccccc2)C(=O)N[C@@H](CC(C)C)B(O)O)cc1 .
### Response 0.21

---

- System: HCT116 cells
- test details: HCT116 cellular toxicity (CellTiter-Glo, 72 h)
- Assay type: cell-based, human
- condition details: 72 h incubation; mean ± SEM or half range, 2–4 experiments
Reported HCT116 LD50 (72 h) values are given for each entry in this list.
Put your answer as a value accompanied by its unit after it.

Use the examples below as a reference point.
compound	HCT116 LD50 (72 h)
CC(C)C[C@H](NC(=O)[C@H](Cc1ccccc1)NC(=O)c1cnccn1)B(O)O [bortezomib, reference compound]	0.006 ± 0.001 µM
CC(C)C[C@H](NC(=O)[C@H](Cc1ccccc1)NC(=O)Cc1ccc(O)cc1)B(O)O	0.025 ± 0.014 µM
CC(=O)N1CCC[C@@H]1C(=O)N[C@@H](C)C(=O)N[C@@H](Cc1ccccc1)B(O)O	0.79 ± 0.01 µM
CC(=O)N1CCC[C@H]1C(=O)N[C@@H](C)C(=O)N[C@@H](CC(C)C)B(O)O	1.3 ± 0.3 µM

### Prompt Please report the recorded HCT116 LD50 (72 h) for Cc1ccc(S(=O)(=O)N[C@@H](CC(=O)NCC(C)(C)C)C(=O)N[C@@H](Cc2ccccc2)C(=O)N[C@@H](CC(C)C)B(O)O)cc1 .
### Response 0.027 ± 0.002 µM
